Assay: Pharmacokinetic comparison after 1-hour IV infusion, plasma concentrations by LC-MS/MS
Format: in vivo, male Sprague-Dawley rats
Settings: male, Sprague-Dawley, plasma; rat, single 10 mg/kg 1-hour intravenous infusion, 24 hours after start of infusion
quantity-kind: concentration at 24 h (ng/mL)
Write the answer as a number in ng/mL, unit excluded.

Data request: Entry under review: COc1cccc(OCCCN)c1-c1cc(Nc2cnc(C#N)cn2)n[nH]1.C[C@H](O)C(=O)O [(S)-Lactate Monohydrate] . Reported concentration at 24 h?
Data returned: 2.6

---

Experiment: Pharmacokinetic comparison after 1-hour IV infusion, plasma concentrations by LC-MS/MS
Assay type: in vivo, male Sprague-Dawley rats
Details: male, Sprague-Dawley, in vivo; rat, single 10 mg/kg 1-hour intravenous infusion, 1 hour after start of infusion
Protocol: Evaluate the noncompartmental pharmacokinetic parameters of the methanesulfonic acid monohydrate and (S)-lactate monohydrate salts of 5-(5-(2-(3-aminopropoxy)-6-methoxyphenyl)-1H-pyrazol-3-ylamino)pyrazine-2-carbonitrile after intravenous (IV) infusion of 10 mg/kg of the methanesulfonic acid monohydrate salt (10 mg/kg, formulated in Captisol®) or of the (S)-lactate monohydrate salt (formulated in trehalose) into the femoral vein cannula of fed male Sprague-Dawley rats for 1 hour. […]
quantity-kind: concentration at 1 h (ng/mL)
Write the answer as a number in ng/mL, unit excluded.

Data request: Entry under review: COc1cccc(OCCCN)c1-c1cc(Nc2cnc(C#N)cn2)n[nH]1.CS(=O)(=O)O.O [Methanesulfonic acid Monohydrate] . Reported concentration at 1 h?
Data returned: 930
